B1: scFv; the commonest letter at each place (parent)
chain 1: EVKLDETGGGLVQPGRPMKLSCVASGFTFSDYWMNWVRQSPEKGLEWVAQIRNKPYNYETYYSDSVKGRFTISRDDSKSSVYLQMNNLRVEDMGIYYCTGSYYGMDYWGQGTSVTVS
chain 2: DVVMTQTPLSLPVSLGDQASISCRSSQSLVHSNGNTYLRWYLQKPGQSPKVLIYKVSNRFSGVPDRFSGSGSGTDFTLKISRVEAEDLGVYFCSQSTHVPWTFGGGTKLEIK

# Variants of: B1
# assay info: Kd (Tite-Seq)
# test settings: with fluorescein; format: scFv 4-4-20, heavy + light
Exercise: for every item that follows, state its recorded Kd.

QUERY: Specify reported Kd for the variant shown: chain 1 G100M G104C
RESULT: ≥ 10 µM

QUERY: For the variant chain 1 S101L Y102W , give its reported Kd.
RESULT: ≥ 10 µM

QUERY: Answer with reported Kd of chain 1 G104V
RESULT: ≥ 10 µM

QUERY: Could you please provide reported Kd for chain 1 Y103F G109F ? Thanks!
RESULT: ≥ 10 µM

QUERY: Provide measured Kd value, entry: chain 1 M34H V37W
RESULT: ≥ 10 µM

QUERY: Could you please provide reported Kd for chain 1 M105P W108S ? Thanks!
RESULT: ≥ 10 µM

QUERY: Determine its reported Kd: chain 1 G100A D106W
RESULT: ≥ 10 µM

QUERY: Identify measured Kd corresponding to chain 1 G109N
RESULT: ≥ 10 µM

QUERY: Recall and state the measured Kd for chain 1 W33T W36Y .
RESULT: ≥ 10 µM

QUERY: Read the entry chain 1 S101D D106R W108I and write its reported Kd.
RESULT: 0.00251 µM

QUERY: Give Kd for the following variant: chain 1 Y102D D106Q
RESULT: ≥ 10 µM

QUERY: For the variant chain 1 M34Y V37M , report Kd.
RESULT: 0.0107 µM

QUERY: Return Kd for the following variant: chain 1 F29C N35I
RESULT: ≥ 10 µM

QUERY: Give Kd for chain 1 S30E M34T W36T
RESULT: ≥ 10 µM

QUERY: Supply Kd value. Item: chain 1 T28E M34R
RESULT: ≥ 10 µM

QUERY: Tell us which Kd value is on record for chain 1 T28L D31G
RESULT: 0.00128 µM

QUERY: Specify Kd for chain 1 Y103L G109S and stop.
RESULT: 0.167 µM

QUERY: Supply recorded Kd for chain 1 D31K W33I M34N here.
RESULT: ≥ 10 µM

QUERY: Using known records, supply Kd for chain 1 G104F D106K
RESULT: ≥ 10 µM

QUERY: For the variant chain 1 S30T M34I , report Kd.
RESULT: 0.00493 µM

QUERY: Report Kd, nothing else, for this variant: chain 1 D31P Y32W
RESULT: ≥ 10 µM

QUERY: Write down Kd measured for item chain 1 Y102G Y103K G109K
RESULT: ≥ 10 µM
